# test-summary: Pharmacokinetic study in rats, single oral dose
# Assay type: in vivo, Sprague-Dawley rats
# experimental-conditions: female, Sprague-Dawley, rat, plasma, oral; 1 mg/kg, 1 hrs; read-out: Rat plasma concentration of ZB716 after a single oral dose
readout-label: concentration at 1 h (ng/mL)

molecule	recorded-measurement
C[C@]12CC[C@@H]3c4ccc(B(O)O)cc4C[C@@H](CCCCCCCCC[S+]([O-])CCCC(F)(F)C(F)(F)F)[C@H]3[C@@H]1CC[C@@H]2O (stereo partly shown) [ZB716]	14.8

* * *

# test-summary: Pharmacokinetic study in rats, single oral dose
# Format: in vivo, Sprague-Dawley rats
# experimental-conditions: female, Sprague-Dawley, rat, plasma, oral; 10 mg/kg, 8 hrs; read-out: Rat plasma concentration of ZB716 after a single oral dose

compound	concentration at 8 h
C[C@]12CC[C@@H]3c4ccc(B(O)O)cc4C[C@@H](CCCCCCCCC[S+]([O-])CCCC(F)(F)C(F)(F)F)[C@H]3[C@@H]1CC[C@@H]2O (stereo partly shown)	60.7 ng/mL

* * *

# test-summary: Drug concentrations in final plasma and tumor tissue of MCF-7 xenograft mice
# Type: in vivo
# experimental-conditions: female, Nu/Nu, mouse, plasma, subcutaneous, 200 mg/kg/wk; read-out: Average concentration in final plasma

compound	concentration at 3 weeks / ng/mL
C[C@]12CC[C@@H]3c4ccc(O)cc4C[C@@H](CCCCCCCCC[S+]([O-])CCCC(F)(F)C(F)(F)F)[C@H]3[C@@H]1CC[C@@H]2O (stereo partly shown) [fulvestrant, reference compound]	27.9

* * *

# test-summary: Pharmacokinetic study in rats, single oral dose
# Type: in vivo, Sprague-Dawley rats
# experimental-conditions: female, Sprague-Dawley, rat, plasma, oral; 20 mg/kg, 24 hrs; read-out: Rat plasma concentration of ZB716 after a single oral dose
# Description: Female Sprague-Dawley rats, weighing between 350 and 400 g (Charles River Laboratories, Portage, MI) were used for the pharmacokinetic study on ZB716. Rats were given oral gavage containing 5% dimethyl sulfoxide (DMSO), 40% polyethylene glycol 400, 55% saline-dissolved ZB716, at doses ranging from 1 mg/kg to 20 mg/kg. After drug administration, blood samples were collected from the lateral tail vein of the rat at 1, 3, 6, 8, 24 h. […]

compound	concentration at 24 h / ng/mL
C[C@]12CC[C@@H]3c4ccc(B(O)O)cc4C[C@@H](CCCCCCCCC[S+]([O-])CCCC(F)(F)C(F)(F)F)[C@H]3[C@@H]1CC[C@@H]2O (stereo partly shown) [ZB716]	98.5

* * *

# test-summary: Pharmacokinetic study in rats, single oral dose
# Type: in vivo, Sprague-Dawley rats
# experimental-conditions: female, Sprague-Dawley, rat, plasma, oral; 5 mg/kg, 6 hrs; read-out: Rat plasma concentration of ZB716 after a single oral dose
readout-label: concentration at 6 h

compound	recorded-measurement
C[C@]12CC[C@@H]3c4ccc(B(O)O)cc4C[C@@H](CCCCCCCCC[S+]([O-])CCCC(F)(F)C(F)(F)F)[C@H]3[C@@H]1CC[C@@H]2O (stereo partly shown)	15.9 ng/mL

* * *

# test-summary: Pharmacokinetic study in rats, single oral dose
# Assay type: in vivo, Sprague-Dawley rats
# experimental-conditions: female, Sprague-Dawley, rat, plasma, oral; 5 mg/kg, 3 hrs; read-out: Rat plasma concentration of ZB716 after a single oral dose

compound	concentration at 3 h
C[C@]12CC[C@@H]3c4ccc(B(O)O)cc4C[C@@H](CCCCCCCCC[S+]([O-])CCCC(F)(F)C(F)(F)F)[C@H]3[C@@H]1CC[C@@H]2O (stereo partly shown)	23.4 ng/mL

* * *

# test-summary: Pharmacokinetic study in rats, single oral dose
# Assay type: in vivo, Sprague-Dawley rats
# experimental-conditions: female, Sprague-Dawley, rat, plasma, oral; 10 mg/kg, 1 hrs; read-out: Rat plasma concentration of ZB716 after a single oral dose

compound	concentration at 1 h (ng/mL)
C[C@]12CC[C@@H]3c4ccc(B(O)O)cc4C[C@@H](CCCCCCCCC[S+]([O-])CCCC(F)(F)C(F)(F)F)[C@H]3[C@@H]1CC[C@@H]2O (stereo partly shown) [ZB716]	218

* * *

# test-summary: Pharmacokinetic study in rats, single oral dose
# Format: in vivo, Sprague-Dawley rats
# experimental-conditions: female, Sprague-Dawley, rat, plasma, oral; 1 mg/kg, 24 hrs; read-out: Rat plasma concentration of ZB716 after a single oral dose

compound	concentration at 24 h
C[C@]12CC[C@@H]3c4ccc(B(O)O)cc4C[C@@H](CCCCCCCCC[S+]([O-])CCCC(F)(F)C(F)(F)F)[C@H]3[C@@H]1CC[C@@H]2O (stereo partly shown) [ZB716]	1.36 ng/mL

* * *

# test-summary: Pharmacokinetic study in rats, single oral dose
# Format: in vivo, Sprague-Dawley rats
# experimental-conditions: female, Sprague-Dawley, rat, plasma, oral; 1 mg/kg, 3 hrs; read-out: Rat plasma concentration of ZB716 after a single oral dose

compound	units-label	concentration at 3 h
C[C@]12CC[C@@H]3c4ccc(B(O)O)cc4C[C@@H](CCCCCCCCC[S+]([O-])CCCC(F)(F)C(F)(F)F)[C@H]3[C@@H]1CC[C@@H]2O (stereo partly shown)	ng/mL	9.23

* * *

# test-summary: Pharmacokinetic study in rats, single oral dose
# Type: in vivo, Sprague-Dawley rats
# experimental-conditions: female, Sprague-Dawley, rat, plasma, oral; 20 mg/kg, 1 hrs; read-out: Rat plasma concentration of ZB716 after a single oral dose
readout-label: concentration at 1 h (ng/mL)

molecule	units-label	recorded-measurement
C[C@]12CC[C@@H]3c4ccc(B(O)O)cc4C[C@@H](CCCCCCCCC[S+]([O-])CCCC(F)(F)C(F)(F)F)[C@H]3[C@@H]1CC[C@@H]2O (stereo partly shown)	ng/mL	1040

* * *

# test-summary: Pharmacokinetic study in rats, single oral dose
# Type: in vivo, Sprague-Dawley rats
# experimental-conditions: female, Sprague-Dawley, rat, plasma, oral; 10 mg/kg, 3 hrs; read-out: Rat plasma concentration of ZB716 after a single oral dose
readout-label: concentration at 3 h (ng/mL)

compound	recorded-measurement
C[C@]12CC[C@@H]3c4ccc(B(O)O)cc4C[C@@H](CCCCCCCCC[S+]([O-])CCCC(F)(F)C(F)(F)F)[C@H]3[C@@H]1CC[C@@H]2O (stereo partly shown)	93.6

* * *

# test-summary: Pharmacokinetic study in rats, single oral dose
# Type: in vivo, Sprague-Dawley rats
# experimental-conditions: female, Sprague-Dawley, rat, plasma, oral; 1 mg/kg, 6 hrs; read-out: Rat plasma concentration of ZB716 after a single oral dose

compound	concentration at 6 h
C[C@]12CC[C@@H]3c4ccc(B(O)O)cc4C[C@@H](CCCCCCCCC[S+]([O-])CCCC(F)(F)C(F)(F)F)[C@H]3[C@@H]1CC[C@@H]2O (stereo partly shown)	4.7 ng/mL

* * *

# test-summary: Pharmacokinetic study in rats, single oral dose
# Format: in vivo, Sprague-Dawley rats
# experimental-conditions: female, Sprague-Dawley, rat, plasma; all four oral doses (1, 5, 10, 20 mg/kg); read-out: time of peak concentration in rat plasma
readout-label: Tmax (h)

compound	recorded-measurement
C[C@]12CC[C@@H]3c4ccc(B(O)O)cc4C[C@@H](CCCCCCCCC[S+]([O-])CCCC(F)(F)C(F)(F)F)[C@H]3[C@@H]1CC[C@@H]2O (stereo partly shown)	1

* * *

# test-summary: Pharmacokinetic study in rats, single oral dose
# Format: in vivo, Sprague-Dawley rats
# experimental-conditions: female, Sprague-Dawley, rat, plasma, oral; 20 mg/kg, 8 hrs; read-out: Rat plasma concentration of ZB716 after a single oral dose

molecule	concentration at 8 h [ng/mL]
C[C@]12CC[C@@H]3c4ccc(B(O)O)cc4C[C@@H](CCCCCCCCC[S+]([O-])CCCC(F)(F)C(F)(F)F)[C@H]3[C@@H]1CC[C@@H]2O (stereo partly shown)	300

* * *

# test-summary: Drug concentrations in final plasma and tumor tissue of MCF-7 xenograft mice
# Assay type: in vivo
# experimental-conditions: female, Nu/Nu, mouse, tumor tissue; treatment ZB716 10 mg/kg daily PO, end of study; read-out: Average concentration in tumor tissue
Reported concentration at 3 weeks is given for each of the following molecules.

molecule	units-label	concentration at 3 weeks
C[C@]12CC[C@@H]3c4ccc(O)cc4C[C@@H](CCCCCCCCC[S+]([O-])CCCC(F)(F)C(F)(F)F)[C@H]3[C@@H]1CC[C@@H]2O (some centres unmarked) [fulvestrant, reference compound]	µg/mL	0.0679
C[C@]12CC[C@@H]3c4ccc(B(O)O)cc4C[C@@H](CCCCCCCCC[S+]([O-])CCCC(F)(F)C(F)(F)F)[C@H]3[C@@H]1CC[C@@H]2O (some centres unmarked)	µg/mL	0.506

* * *

# test-summary: Drug concentrations in final plasma and tumor tissue of MCF-7 xenograft mice
# Assay type: in vivo
# experimental-conditions: female, Nu/Nu, mouse, plasma; treatment ZB716 30 mg/kg daily PO, end of study; read-out: Average concentration in final plasma
Items are presented alongside their recorded concentration at 3 weeks.
readout-label: concentration at 3 weeks (ng/mL)

molecule	readout-label	units-label	recorded-measurement
C[C@]12CC[C@@H]3c4ccc(B(O)O)cc4C[C@@H](CCCCCCCCC[S+]([O-])CCCC(F)(F)C(F)(F)F)[C@H]3[C@@H]1CC[C@@H]2O (some centres unmarked)	concentration at 3 weeks	ng/mL	692
C[C@]12CC[C@@H]3c4ccc(O)cc4C[C@@H](CCCCCCCCC[S+]([O-])CCCC(F)(F)C(F)(F)F)[C@H]3[C@@H]1CC[C@@H]2O (some centres unmarked) [fulvestrant, reference compound]	concentration at 3 weeks	ng/mL	145
